- assay_target: High affinity cGMP-specific 3',5'-cyclic phosphodiesterase 9A (Homo sapiens, UniProt O76083)
- Sequence (O76083 whole entry): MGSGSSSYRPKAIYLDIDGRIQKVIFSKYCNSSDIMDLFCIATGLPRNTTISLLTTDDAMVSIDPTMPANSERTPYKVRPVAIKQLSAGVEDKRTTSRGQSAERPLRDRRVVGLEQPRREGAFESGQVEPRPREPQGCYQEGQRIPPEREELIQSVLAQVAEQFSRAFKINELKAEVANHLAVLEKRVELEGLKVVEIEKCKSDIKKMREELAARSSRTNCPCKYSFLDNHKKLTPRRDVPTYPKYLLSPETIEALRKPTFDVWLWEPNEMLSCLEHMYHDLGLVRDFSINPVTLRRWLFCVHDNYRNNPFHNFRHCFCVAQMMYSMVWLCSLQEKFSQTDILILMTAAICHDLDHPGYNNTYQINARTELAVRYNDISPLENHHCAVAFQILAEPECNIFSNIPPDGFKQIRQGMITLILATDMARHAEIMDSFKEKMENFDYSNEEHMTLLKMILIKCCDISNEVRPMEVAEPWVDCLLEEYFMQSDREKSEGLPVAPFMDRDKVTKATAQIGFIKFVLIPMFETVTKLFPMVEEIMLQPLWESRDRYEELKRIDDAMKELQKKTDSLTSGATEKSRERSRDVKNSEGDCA
pIC50: −log10 of the molar value.
property_name: pIC50

Would you mind telling me what pIC50 value was observed for CCCCOc1cncc(-c2nnc3c(C)nc4ccc(CN5CCOCC5)cc4n23)c1 ?
< 5.00

----------
- assay_target: Dual specificity calcium/calmodulin-dependent 3',5'-cyclic nucleotide phosphodiesterase 1A (Homo sapiens)
- Sequence (P54750 whole entry): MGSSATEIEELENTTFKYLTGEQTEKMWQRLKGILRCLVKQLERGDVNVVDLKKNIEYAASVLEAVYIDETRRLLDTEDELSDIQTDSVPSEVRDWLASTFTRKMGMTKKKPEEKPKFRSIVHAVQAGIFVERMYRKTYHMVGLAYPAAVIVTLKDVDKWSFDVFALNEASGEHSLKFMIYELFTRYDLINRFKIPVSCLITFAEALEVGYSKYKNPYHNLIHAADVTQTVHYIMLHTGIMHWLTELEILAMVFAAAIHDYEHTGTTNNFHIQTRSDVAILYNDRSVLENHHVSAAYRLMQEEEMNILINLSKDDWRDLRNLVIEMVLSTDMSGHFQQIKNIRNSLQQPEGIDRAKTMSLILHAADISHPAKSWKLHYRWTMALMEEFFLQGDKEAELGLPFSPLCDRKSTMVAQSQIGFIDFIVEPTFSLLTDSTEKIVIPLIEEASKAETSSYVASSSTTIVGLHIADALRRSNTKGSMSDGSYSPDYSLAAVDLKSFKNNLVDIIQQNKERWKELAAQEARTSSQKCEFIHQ
- assay_method_text: Inhibition of human PDE1A by scintillation counting method
property_name: IC50

Would you mind telling me what IC50 value was observed for CCCCOc1cncc(-c2nnc3c(C)nc4ccc(CN5CCOCC5)cc4n23)c1 ?
> 10 µM

----------
- assay_method_text: Ratio of drug level in brain to plasma in rat at 10 mg/kg, po after 30 mins
- Assay type: ADME, organism-based
- Design: dose 10 mg/kg, route oral
- protocol_conditions: read-out: BPR
property_name: Kp at 0.5 h
Answer using only a numeral; do not append any unit.

Would you mind telling me what Kp at 0.5 h value was observed for COc1ccc(Cc2nn3c([C@@H](CCCc4ccccc4)[C@@H](C)O)nc(C)c3c(=O)[nH]2)cc1OC ?
0.05

----------
- assay_method_text: Clearance in Sprague-Dawley rat at 2.5 mg/kg, iv
- Assay type: ADME, organism-based
- Design: dose 2.5 mg/kg, route intravenous
- protocol_conditions: in vivo
property_name: clearance (mL/min/kg)
Quick note: give the figure in mL/min/kg, leave out the unit.

Would you mind telling me what clearance value was observed for CCCCOc1cncc(-c2nnc3c(C)nc4ccc(CN5CCOCC5)cc4n23)c1 ?
130

----------
- assay_method_text: Tmax in Sprague-Dawley rat at 10 mg/kg, sc
- Assay type: ADME, organism-based
- Set-up: dose 10 mg/kg, route subcutaneous
- protocol_conditions: in vivo
property_name: Tmax (min)
Quick note: give the figure in min, leave out the unit.

Would you mind telling me what Tmax value was observed for CCCCOc1cncc(-c2nnc3c(C)nc4ccc(CN5CCOCC5)cc4n23)c1 ?
40.2

----------
- assay_method_text: Stability in human liver microsomes assessed as parent compound remaining after 15 mins
- Assay type: ADME
- protocol_conditions: read-out: Stability
property_name: remaining at 0.25 h (%)
Quick note: give the figure in %, leave out the unit.

Would you mind telling me what remaining at 0.25 h value was observed for CCCCOc1cncc(-c2nnc3c(C)nc4ccc(CN5CCOCC5)cc4n23)c1 ?
0

----------
- assay_target: cGMP-specific 3',5'-cyclic phosphodiesterase (Homo sapiens)
property_name: IC50

Would you mind telling me what IC50 value was observed for CCCCOc1cncc(-c2nnc3c(C)nc4ccc(CN5CCOCC5)cc4n23)c1 ?
> 10 µM

----------
- assay_method_text: Unbound fraction in Sprague-Dawley rat brain at 10 mg/kg, sc
- Type: ADME, organism-based
- Set-up: dose 10 mg/kg, route subcutaneous
property_name: fraction unbound
Answer using only a numeral; do not append any unit.

Would you mind telling me what fraction unbound value was observed for CCCCOc1cncc(-c2nnc3c(C)nc4ccc(CN5CCOCC5)cc4n23)c1 ?
0.14

----------
- assay_method_text: Drug level in rat brain at 10 mg/kg, po after 30 mins
- Format: ADME, organism-based
- Design: dose 10 mg/kg, route oral
- protocol_conditions: read-out: Drug uptake
property_name: concentration at 0.5 h (ng/g)
Quick note: give the figure in ng/g, leave out the unit.

Would you mind telling me what concentration at 0.5 h value was observed for COc1ccc(Cc2nn3c([C@@H](CCCc4ccccc4)[C@@H](C)O)nc(C)c3c(=O)[nH]2)cc1OC ?
3.6
